# System: CCRIS mutagenicity, Ames/micronucleus/aberration tests
# PROTOCOL_NOTES: CCRIS mutagenicity studies
# SETTINGS: Test System: AMES SALMONELLA TYPHIMURIUM; Strain/Indicator: TA1537; Metabolic Activation: RAT, LIVER, S-9, AROCLOR 1254; Method: STANDARD PLATE
Calls of active or inactive are those of the source. The rule behind the calls is not given here.
Returns: one label drawn from active, inactive

Observe how each entry below is paired with its result.
# MOLECULE, TARGET_UNDER_TEST, QUALITATIVE_LABEL
rows = [
    ("COc1cc(N)c(C)cc1N", "CCRIS mutagenicity, Ames/micronucleus/aberration tests", "inactive"),
    ("COc1cc(C[C@@H]2NCCc3cc(O)c(O)cc32)cc(OC)c1OC", "CCRIS mutagenicity, Ames/micronucleus/aberration tests", "inactive"),
    ("Cc1ccc(C(=O)O[C@@H](C(=O)O)[C@@H](OC(=O)c2ccc(C)cc2)C(=O)O)cc1 (tested in a mixture with another compound)", "CCRIS mutagenicity, Ames/micronucleus/aberration tests", "active"),
]

For O=NN(CC(=O)O)CC1(O)OCC(O)C(O)C1O (centres undefined) , what call appears in the results of this test?
inactive

Consider next the molecule Oc1ccc2ccc3c4ccccc4cc4ccc1c2c43 in the same way.
active

Consider next the molecule O=[N+]([O-])C1=Cc2c3ccc4ccccc4c3cc3cccc1c23 in the same way.
active

Consider next the molecule C=C(C)C(C)=O in the same way.
inactive

Consider next the molecule O=[N+]([O-])c1cc(NS(=O)(=O)c2cccc3cccnc23)ccc1Cl in the same way.
inactive

Consider next the molecule COC1C2C(=O)C34C(=O)c5c(O)cc(C)cc5C(=O)C35C3C(=O)C46C(=O)c4c(O)cc(C)cc4C(=O)C26C(C3OC)C15 (centres undefined) in the same way.
inactive

----------
# System: CCRIS mutagenicity, Ames/micronucleus/aberration tests
# PROTOCOL_NOTES: CCRIS mutagenicity studies
# SETTINGS: Test System: AMES SALMONELLA TYPHIMURIUM; Strain/Indicator: TA98; Metabolic Activation: RAT, LIVER, S-9, AROCLOR 1254; Method: STANDARD PLATE
Activity calls are given as the source filed them. The rule behind the calls is not given here.
MEASURED_ENDPOINT: mutagenic call

# MOLECULE, mutagenic call
data = [
    ("CC(=O)ON(C(C)=O)c1ccccc1C", "inactive; negative"),
    ("CC(C)C[C@H](NC(=O)COc1cc(Cl)c(Cl)cc1Cl)C(=O)O", "inactive; negative"),
    ("C[n+]1c2cc(N)ccc2cc2ccc(N)cc21 (tested in a mixture with another compound)", "active; positive"),
    ("Nc1ncn([C@@H]2O[C@H](CO)[C@@H](O)[C@@H]2O)c(=O)n1", "inactive; negative"),
]

For each of the molecules below, state mutagenic call.
1. Nc1ncnc2c1ncn2[C@H]1CC[C@@H](CO)O1
2. CC(=O)Nc1ccc2c(c1OC(C)=O)Cc1ccccc1-2
3. c1ccc2c(c1)ccc1cc3ccc4ccncc4c3cc12
4. O=C1C(=O)c2cccc3cccc1c23
5. Cc1cnc2c(C)cc3c(nc(N)n3C)c2n1

1: inactive; negative; 2: inactive; negative; 3: active; positive; 4: active; positive; 5: active; positive

For each of the molecules below, state mutagenic call.
1. Cc1c2ccccc2cc2ccccc12
2. COCC1O[C@@H](O[C@@H]2C(COC)OC(OC)C(OC)C2OC)C(OC)C(OC)C1OC (stereo partly drawn)
3. O=NN(CC(=O)O)CC1(O)OCC(O)C(O)C1O (stereo not drawn)
4. COc1c(C(C)(C)C)cc([N+](=O)[O-])c(C)c1[N+](=O)[O-]

1: active; positive; 2: inactive; negative; 3: inactive; negative; 4: inactive; negative
